# method-summary: Trial of weekly pulse oral calcitriol: plasma/serum 1,25-dihydroxyvitamin D levels (radioimmunoassay, radioreceptor assay)
# Assay type: in vivo, human
# condition-details: male, human, plasma; melanoma patient, 37 mcg po in four hourly doses; sample two hours after the last dose, week one; normal controls 21 to 65 pg/ml; read-out: level of calcitriol in plasma

| compound | unit-abbreviation | concentration at 2 h |
| --- | --- | --- |
| C=C1/C(=C\C=C2/CCC[C@]3(C)[C@@H]([C@H](C)CCCC(C)(C)O)CC[C@@H]23)C[C@@H](O)C[C@@H]1O [calcitriol, 1α,25-dihydroxycholecalciferol] | ng/mL | 1.83 |

All values here come from patent US6521608B1.
